molecular target: Mu-type opioid receptor (Cavia porcellus, UniProt P97266); assay: Agonist activity at mu opioid receptor in myenteric plexus muscle from guinea pig
Sequence (P97266 whole entry): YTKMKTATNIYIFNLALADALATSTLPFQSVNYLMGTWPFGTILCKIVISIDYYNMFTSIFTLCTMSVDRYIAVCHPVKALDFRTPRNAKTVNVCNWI
pIC50: −log10 of the molar value.
Parameter: pIC50. Scope: all listed entries.
measure-name: pIC50

[[record]]
molecule = "COc1cccc([C@@H](c2ccc3c(c2)CN(CCC(=O)O)C3)N2C[C@@H](C)N(Cc3ccccc3)C[C@@H]2C)c1"
measure_name = "pIC50"
measurement = "< 5.00"

[[record]]
molecule = "C=CCN1C[C@H](C)N([C@H](c2ccc(C(=O)N(CC)CC)cc2)c2cccc(OC)c2)C[C@H]1C [SNC-80]"
measure_name = "pIC50"
measurement = "< 5.00"

[[record]]
molecule = "COc1cccc([C@@H](c2ccc3c(c2)CN(CCC(=O)O)CC3)N2C[C@@H](C)N(Cc3ccccc3)C[C@@H]2C)c1"
measure_name = "pIC50"
measurement = "< 5.00"


// provenance: ChEMBL document CHEMBL1138105
